Tested on: TAA-induced liver disease mouse models
assayInfo: TAA-induced liver disease mouse model
Type: in vivo
testContext: blood, TAA mice, 50 mg/kg/day, 16 weeks; mean±S.E.M
reportedEndpoint: AST blood levels
Form field: result (number plus unit)

# molecule, reportedEndpoint, observed
data = [
    ("O=C(C[S+]([O-])C(c1ccccc1)c1ccccc1)NCC1CCCO1 (centres unmarked)", "AST blood levels", "67.7±10.2 units/L"),
    ("NC(=O)C[S+]([O-])C(c1ccccc1)c1ccccc1 (centres unmarked) [CBM-N1, 2-(benzhydrylsulfinyl)acetamide]", "AST blood levels", "62.7±11.6 units/L"),
    ("CNC(=O)C[S+]([O-])C(c1ccccc1)c1ccccc1 (centres unmarked) [CBM-N4, 2-(benzhydrylsulfinyl)-N-methylacetamide]", "AST blood levels", "66.6±9.4 units/L"),
]

Form: item O=C(CSC(c1ccccc1)c1ccccc1)Nc1ccccc1 [CBM-N3, 2-(benzhydrylthio)-N-phenylacetamide] ; test system TAA-induced liver disease mouse models; AST blood levels: 73.4±7.4 units/L

Form: item O=C(CSC(c1ccccc1)c1ccccc1)NCC1CCCO1 (centres unmarked) ; test system TAA-induced liver disease mouse models; AST blood levels: 83.6±14.8 units/L
